- System: SUP-B15;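 also: ALL cell lines in 384-well plates, five doses spanning 10,000-fold, each plate scaled between vehicle and 100 µmol/L benzalkonium chloride controls, sDSS an adapted area-under-curve metric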
- ASSAY COMMENT: selective drug sensitivity score (sDSS, relative to normal bone marrow) (sDSS (score)); higher = more potent and effective on the cell line relative to normal bone marrow cells
- MEASUREMENT PARAMETERS: 72 h
// reported selective drug sensitivity score per item
Give your answer as a number; write no unit.

Illustrative cases are given below, each with its answer.
MOLECULE	selective drug sensitivity score
O=C(Nc1ccc2[nH]nc(-c3ccncc3)c2c1)[C@@H]1CCN(CC(=O)N2CCN(c3ccc(-c4ncccn4)cc3)CC2)C1 (top concentration 10000 nM)	12.6
COc1cc2c(cc1-c1c(C)noc1C)ncc1[nH]c(=O)n([C@H](C)c3ccccn3)c12 [I-BET151] (top concentration 10000 nM)	5.96
C[C@H]1C[C@@H](n2c(Nc3ccc(OC(F)(F)F)cc3)nc3cc(CCC(=O)O)ccc32)CC(C)(C)C1 (top concentration 10000 nM)	2.16
CN(C)C1CCN(C(=O)c2ccc(NC(=O)Nc3ccc(-c4nc(N5CCOCC5)nc(N5CCOCC5)n4)cc3)cc2)CC1 [Gedatolisib] (top concentration 1000 nM)	8.36

Reported selective drug sensitivity score for CCN1CCN(c2ccc(Nc3cc(N(C)C(=O)Nc4c(Cl)c(OC)cc(OC)c4Cl)ncn3)cc2)CC1 [Infigratinib] (top concentration 1000 nM) : what is it?
0

Also CC[C@H](CC#N)OC(=O)N[C@@H](C)c1cccc(NC(=O)Nc2ccc(-c3cnco3)c(OC)c2)c1 [AVN944] (top concentration 10000 nM) , if possible.
14.6

Also O=C(/C=C/c1cccc(S(=O)(=O)Nc2ccccc2)c1)NO [Belinostat] (top concentration 10000 nM) , if possible.
8.5

Also CC(C)[C@@H](CS(=O)(=O)C(C)C)N1C(=O)[C@@](C)(CC(=O)O)C[C@H](c2cccc(Cl)c2)[C@H]1c1ccc(Cl)cc1 [AMG-232] (top concentration 10000 nM) , if possible.
16.5

Also Nc1cc(F)ccc1NC(=O)c1ccc(CNC(=O)/C=C/c2cccnc2)cc1 [Tucidinostat] (top concentration 10000 nM) , if possible.
5.34

Also CO[C@H](C(=O)[C@@H](O)[C@@H](C)O)[C@@H]1Cc2cc3cc(O[C@H]4C[C@@H](O[C@H]5C[C@@H](O)[C@H](O)[C@@H](C)O5)[C@@H](O)[C@@H](C)O4)c(C)c(O)c3c(O)c2C(=O)[C@H]1O[C@H]1C[C@@H](O[C@H]2C[C@@H](O[C@H]3C[C@](C)(O)[C@H](O)[C@@H](C)O3)[C@H](O)[C@@H](C)O2)[C@H](O)[C@@H](C)O1 [Plicamycin] (top concentration 10000 nM) , if possible.
-15.6

Also Nc1ccccc1NC(=O)c1ccc(CNC(=O)OCc2cccnc2)cc1 [Entinostat] (top concentration 10000 nM) , if possible.
7.08

Also CC[C@@H]1[C@H](F)C(=O)N[C@@H]1COc1nccc2cc(C(N)=O)c(OC)cc12 (top concentration 10000 nM) , if possible.
0.98

Also Cc1sc2c(c1C)C(c1ccc(Cl)cc1)=N[C@@H](CC(=O)NCCCCNC(=O)COc1cccc3c1C(=O)N(C1CCC(=O)NC1=O)C3=O)c1nnc(C)n1-2 (some centres not stated) [dBET1] (top concentration 10000 nM) , if possible.
0.52
